test system: VchCAST RNA-guided transposition machinery (E. coli BL21(DE3) host, lacZ target); assay: relative integration efficiency (T-LR orientation) vs wild-type transposon end (log2 (normalized fold change)); transposon end mutated: right end (5 bp flank + 75 bp right end); higher = more efficient transposition
measurementLabel: relative integration efficiency (log2)
Give your answer as a number; write no unit.

Query: // query relative integration efficiency (log2) value for entry ACATTTGTTGATACAACCATAAAATGATAATTACAAAACTAAATTGATAATTATCACACCCATAAATTGATATTGCCTCTGATCATAGTCAGACCAACATTGCTACGACCCGTATTCGCACCGACAC
Result: -2.92

Query: // query relative integration efficiency (log2) value for entry ACATTTGTTGATACAACCATAAAATGATAATTACACCCATAAATTGATAATTATCACACCCATAAATTGATATTGCCTCTTCATGTGAGCCCAGGCAGTCCTGGGCATCAATTTTCAGCACCGACAC
Result: 0.0484

Query: // query relative integration efficiency (log2) value for entry ACATTTGTTGATACAACCATAAAATGATAATTACACCCATAAATTGATAATCACACCCATAAATTGATATTGCCTCTGATCATAGTCAGACCAACATTGCTACGACCCGTATTCGCACCGACACTGA
Result: 1.82

Query: // query relative integration efficiency (log2) value for entry ACATTTGTTGATACACCCATAAATTGATAATTACACCCATAAATTGATATTGCTCACACCCATAAATTGATAATTACTCTGATCATAGTCAGACCAACATTGCTACGACCCGTATTCGCACCGACAC
Result: 0.319

Query: // query relative integration efficiency (log2) value for entry ACATTTGTTGATACAACCATAAAATGATAATTACTCTGATCATAGTCAGACCAACATTGCTACGACCCGTATTCGCACCGACACAACGACTATCACCCATAAATTGATAATTATCAGTGGGTATTTA
Result: 2.17

Query: // query relative integration efficiency (log2) value for entry ACATTTGTTGATACAACCATATATTGATATCTCCAACCATAAAGTGATATTTATCACAACCATAAAATGATAATTACTCTGATCATAGTCAGACCAACATTGCTACGACCCGTATTCGCACCGACAC
Result: -0.762

Query: // query relative integration efficiency (log2) value for entry ACATTTGTTGATACAACCATAAAATGATAATTAATACACCCATAAATTGATAATTATCACACCCATAAATTGATATTGCCTCTGATCATAGTCAGACCAACATTGCTACGACCCGTATTCGCACCGA
Result: -0.393

Query: // query relative integration efficiency (log2) value for entry ACATTTGTTGATACAACCAAAAAATGATAATTACACCCAAAAATTGATAATTATCACACCCAAAAATTGATATTGCCTCTGATCATAGTCAGACCAACATTGCTACGACCCGTATTCGCACCGACAC
Result: 0.0409

Query: // query relative integration efficiency (log2) value for entry ACATTTGTTGATACAACCATAAAATGATAAATACACCCATAAATTGATAATGATGACACCGAATTTAACTATAACGCTCTGATCATAGTCAGACCAACATTGCTACGACCCGTATTCGCACCGACAC
Result: 2.71

Query: // query relative integration efficiency (log2) value for entry ACATTTGTTGATACAACCATAAAATGATAATGCCACCCATAAATTGATAATGCTCACACCCATAAATTGATATTTACTCTGATCATAGTCAGACCAACATTGCTACGACCCGTATTCGCACCGACAC
Result: -0.0326

* * *

test system: VchCAST RNA-guided transposition machinery (E. coli BL21(DE3) host, lacZ target); experiment: relative integration efficiency (T-LR orientation) vs wild-type transposon end (log2 (normalized fold change)); transposon end mutated: right end (5 bp flank + 75 bp right end); higher = more efficient transposition
Provide the recorded relative integration efficiency (log2) for the entries that follow.
Give your answer as a number; write no unit.

Query: // query relative integration efficiency (log2) value for entry ACATTTGTTGATACAACCATAAAGTGATATTTACAACCATATATTGATATCTCTCACACCCATAAATTGATATTGCCTCTGATCATAGTCAGACCAACATTGCTACGACCCGTATTCGCACCGACAC
Result: 0.352

Query: // query relative integration efficiency (log2) value for entry ACATTTGTTGATACAACCATATATTGATATCTCCAACCATAAAGTGATATTTATCACAACCATAAGTTGATATTTTCTCTGATCATAGTCAGACCAACATTGCTACGACCCGTATTCGCACCGACAC
Result: 0.0054

Query: // query relative integration efficiency (log2) value for entry ACATTTGTTGATACAACCATAAAATCATCATTACCCCCATCAATTGATAATTATCACACCCAATTTAACTATAACGCTCTGATCATAGTCAGACCAACATTGCTACGACCCGTATTCGCACCGACAC
Result: -1.24

Query: // query relative integration efficiency (log2) value for entry ACATTTGTTGATCACCCCATAAAATGATAATTACACCCATAAATTGATAATTATCACACCCATAAATTGATATTGCCTCTGATCATAGTCAGACCAACATTGCTACGACCCGTATTCGCACCGACAC
Result: -1.51

Query: // query relative integration efficiency (log2) value for entry ACATTTGTTGATACACCCATAAATTGATAATTACAACCATATATTGATATCTCTCACACCCATAAATTGATAATTACTCTGATCATAGTCAGACCAACATTGCTACGACCCGTATTCGCACCGACAC
Result: 0.157

* * *

test system: VchCAST RNA-guided transposition machinery (E. coli BL21(DE3) host, lacZ target); test: relative integration efficiency (T-RL orientation) vs wild-type transposon end (log2 (normalized fold change)); transposon end mutated: right end (5 bp flank + 75 bp right end); higher = more efficient transposition
Provide the recorded relative integration efficiency (log2) for the entries that follow.
Give your answer as a number; write no unit.

Query: // query relative integration efficiency (log2) value for entry ACATTTGTTGATACAACCATAAAATTATAATTACACCCATAAATTTATAATTATCACACCCATAAATTTATATTGCCTCTGATCATAGTCAGACCAACATTGCTACGACCCGTATTCGCACCGACAC
Result: -1.23

Query: // query relative integration efficiency (log2) value for entry ACATTTGTCGATCCAACCATAAAATGATAATTACACCCATAAATTCATAATTATCACACCCAATTTAACTATAACGCTCTGATCATAGTCAGACCAACATTGCTACGACCCGTATTCGCACCGACAC
Result: -2.45

Query: // query relative integration efficiency (log2) value for entry ACATTTGTTGATACAACCATAAAATGATAATTACACCCATTAATTGATAATGATGACACCGAATTTAACTATAACGCTCTGATCATAGTCAGACCAACATTGCTACGACCCGTATTCGCACCGACAC
Result: -1.4

Query: // query relative integration efficiency (log2) value for entry ACATTTGTTGATACAACCATAAAAGGATCATTACCCCCATCAATTGATAATTATCACACCCAATTTAACTATAACGCTCTGATCATAGTCAGACCAACATTGCTACGACCCGTATTCGCACCGACAC
Result: -4.48

Query: // query relative integration efficiency (log2) value for entry ACATTTGTTGATACAACCATAAAATGATCATTACCCCCATCAATTGATAATTATCCCACCCCATTTAACTATAACGCTCTGATCATAGTCAGACCAACATTGCTACGACCCGTATTCGCACCGACAC
Result: -3.97

Query: // query relative integration efficiency (log2) value for entry ACATTTGTTGATACAACCATTAAATGATAATTACACCCATTAATTGATAATTATCACACCCATTAATTGATATTGCCTCTGATCATAGTCAGACCAACATTGCTACGACCCGTATTCGCACCGACAC
Result: -0.515

Query: // query relative integration efficiency (log2) value for entry ACATTTGTTGATACAACCATAAAATCATCATTACACCCATAAATTGATAATTATCCCACCCAATTTAACTATAACGCTCTGATCATAGTCAGACCAACATTGCTACGACCCGTATTCGCACCGACAC
Result: -3.07

Query: // query relative integration efficiency (log2) value for entry ACATTTGTTGATACAACCATAAAATGATAATTACACCCATACCGGTCGCCGGCGACACAAACGCCCGGTCGCGGTAAGAGGATCATAGTCAGACCAACATTGCTACGACCCGTATTCGCACCGACAC
Result: -2.6

Query: // query relative integration efficiency (log2) value for entry ACATTTGTTGATACAACCATAAGTTGATATTTTCACCCATAAATTGATATTGCTCACAACCATAAGTTGATATTTTCTCTGATCATAGTCAGACCAACATTGCTACGACCCGTATTCGCACCGACAC
Result: -0.281

Query: // query relative integration efficiency (log2) value for entry ACATTTGTTGATACAACCATAAAATGATAATTACACCCATCAATTGATAATTATCCCACCCCATTTAACTATAACGCTCTGATCATAGTCAGACCAACATTGCTACGACCCGTATTCGCACCGACAC
Result: -2.54
